# System Under Test: T1, Human CXCL10-His (human, UniProt P02778 22-98)
# T1 construct: also called hCXCL10; recombinant human CXCL10 protein; not shown: His tag (named CXCL10-His)
# T1 sequence (looked up): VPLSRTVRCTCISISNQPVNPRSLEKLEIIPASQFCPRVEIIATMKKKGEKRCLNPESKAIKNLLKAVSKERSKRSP
# Test Name: phage ELISA, CXCL10/a-myc
Result Type: Ratio

GET /value?item= scFv-phage clone 12D (scFv) QVQLVQSGGGVVQPGRSLRLSCVASAFTFSRYGMHWVRQAPGKGLEWVALISYDGSSEYYADSVKGRFNISRDNSKNTVYLQMNSLRAEDTAVYYCVKDGLAAKLGHWGQGTLVTVSSQAPSLSVSPGQTANIICSGDNLRTKYVSWYQQKPGQSPLLVIYQDTRRPSGIPARFSGSNSGNTATLTISGTQTERESTYYCMTWDVDTTSMIFGGGTKLTVLG &field=Ratio returns 3.4
